# System: IRE1-XBP1s (XBP1-RLuc splicing reporter in HEK293 T-REx cells)
# assay-text: IRE1-XBP1s activation assay (XBP1-RLuc splicing reporter, HEK293 T-REx cells, luminescence relative to thapsigargin)
# Assay type: cell-based
# measurement-context: 18 h, compound 10 μM, HEK293 T-REx XBP1-RLuc reporter cells, relative to thapsigargin (Tg) 500 nM, read-out: Activity (IRE1-XBP1s activation, luminescence as % signal relative to thapsigargin, % Tg)
Please go through the items and note down their activation at 10 µM.

Q. Given `Cc1ccc(OCCN(C)C(=O)Cn2cc(NC(=O)CCOc3cccc(C)n3)cn2)cc1` , respond with its activation at 10 µM.
A. > 50%

Q. Given `Cc1ccc(OCCN(C)C(=O)Cn2cc(NC(=O)CCNc3cc(C)ncc3F)cn2)cc1` , respond with its activation at 10 µM.
A. < 30%

Q. Given Cc1ccc(OCCN(C)C(=O)Cn2cc(NC(=O)OC3CCCN(c4ccnc(F)n4)C3)cn2)cc1 (stereo not shown) , respond with its activation at 10 µM.
A. < 30%

Q. Given `Cc1ccc(OCCN(C)C(=O)Cn2cc(NC(=O)CCOc3ncccc3[N+](=O)[O-])cn2)cc1` , respond with its activation at 10 µM.
A. > 50%

Q. Given `Cc1ccc(OCCN(C)C(=O)Cn2cc(NC(=O)CCOc3ncncc3N)cn2)cc1` , respond with its activation at 10 µM.
A. > 50%

Q. Given `Cc1ccc(OCCN(C)C(=O)Cn2cc(NC(=O)CCNc3c(F)cncc3C(C)C)cn2)cc1` , respond with its activation at 10 µM.
A. > 50%

Q. Given `Cc1ccc(OCCN(C)C(=O)Cn2cc(NC(=O)CCNc3cccnc3C)cn2)cc1` , respond with its activation at 10 µM.
A. 30 to 50%

Q. Given `Cc1ccc(OCCN(C)C(=O)Cn2cc(NC(=O)CCNc3ncc(C(F)(F)F)cc3Cl)cn2)cc1` , respond with its activation at 10 µM.
A. < 30%

Q. Given `Cc1ccc(OCCN(C)C(=O)Cn2cc(NC(=O)CCOc3cccnc3C)cn2)cc1` , respond with its activation at 10 µM.
A. 30 to 50%

Q. Given `Cc1ccc(OCCN(C)C(=O)Cn2cc(NC(=O)CCNc3nc(Cl)ns3)cn2)cc1` , respond with its activation at 10 µM.
A. > 50%

Q. Given `Cc1ccc(OCCN(C)C(=O)Cn2cc(NC(=O)CCNc3ncncc3C(C)C)cn2)cc1` , respond with its activation at 10 µM.
A. > 50%

Q. Given `Cc1ccc(OCCN(C)C(=O)Cn2cc(NC(=O)CCNc3ccc(Cl)cn3)cn2)cc1` , respond with its activation at 10 µM.
A. < 30%

Q. Given `Cc1ccc(OCCN(C)C(=O)Cn2cc(NC(=O)CCOc3cccc(C(C)C)n3)cn2)cc1` , respond with its activation at 10 µM.
A. < 30%

Q. Given `Cc1ccc(OCCN(C)C(=O)Cn2cc(NC(=O)CCNc3cnc4c(c3)OCO4)cn2)cc1` , respond with its activation at 10 µM.
A. > 50%

Q. Given `C#CCCC1(CCC(=O)Nc2cncc(OCCC(=O)Nc3cnn(CC(=O)N(C)CCOc4ccc(C)cc4)c3)c2)N=N1` , respond with its activation at 10 µM.
A. < 30%

Q. Given `Cc1ccc(OCCN(C)C(=O)Cn2cc(NC(=O)CNCc3cccnc3N)cn2)cc1` , respond with its activation at 10 µM.
A. < 30%
